Tested on: ATP;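 also: ATP exposure 15 min at 22 °C before imaging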
assay_notes: switch fluorescence ratio, 500 uM ATP over buffer (Cy3 cluster intensity, sum of 5 cycles each) (fold (ratio)); higher = stronger signal-on switching upon ATP binding; sequences stand for … in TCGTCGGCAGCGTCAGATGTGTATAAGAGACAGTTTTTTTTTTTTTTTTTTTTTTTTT…TC
study_conditions: aptamer strand: ATP DNA aptamer (quencher-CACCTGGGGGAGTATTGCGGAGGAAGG + anchor), 100 nM annealed; ATP concentration: 500 uM
For each entry below, report its switch fluorescence ratio value.
Kindly provide the number alone.

In: For the sequence `AGGGGCGTGC` , what switch fluorescence ratio is on record?
Out: 0.977

In: Which measured switch fluorescence ratio value corresponds to `CGCGGCTTGG` ?
Out: 1.01

In: Any idea what switch fluorescence ratio was measured for `GGGCTAATAA` ?
Out: 1.02

In: Look up switch fluorescence ratio: `TACGGATCGT`
Out: 0.974

In: For the sequence `AACAACTCTC` , what switch fluorescence ratio is on record?
Out: 1.06

In: Requested read-out: switch fluorescence ratio. Entry: `TTGATCTGCT`
Out: 0.987

In: Param item = `GACGGGCGGC` ; retrieve measured switch fluorescence ratio.
Out: 0.984

In: Quick check: switch fluorescence ratio of `CACGGGTTCC` ?
Out: 1.03

In: What switch fluorescence ratio value was documented for this sequence, `TGACGAAGGA` ?
Out: 1.23

In: Returns the measured switch fluorescence ratio for the input sequence. Input: `AGCACAAAAA`
Out: 1.12

In: Param item = `ATACAAGACT` ; retrieve measured switch fluorescence ratio.
Out: 1.06

In: Query: switch fluorescence ratio; subject: `GGTCAAGGGG`
Out: 0.983

In: Query (sequence): `GTCGGTATTC` ; field requested: switch fluorescence ratio
Out: 0.995

In: Request the reported switch fluorescence ratio associated with `GAAACGGTGT`
Out: 1.02

In: Please report the recorded switch fluorescence ratio for `CACGACTCGT` .
Out: 1

In: // query switch fluorescence ratio value for entry `GGGAGGTAGG`
Out: 0.991

In: # get_value(readout='switch fluorescence ratio', item= `CCAGGTTTGC` )
Out: 1.08

In: Suppose we examine the sequence `TACCTGGGTA` ; what switch fluorescence ratio value has been reported?
Out: 0.948

In: Entry under review: `GCGGGTTTTA` . Reported switch fluorescence ratio?
Out: 1.01

In: Please give the measured switch fluorescence ratio for this sequence: `TGCTGGGGTT`
Out: 0.976

In: Any idea what its switch fluorescence ratio is? The sequence is `TCTGGGGAGG`
Out: 1

In: What does the data say about its switch fluorescence ratio? Entry: `AATAGGGCTT`
Out: 0.978

In: Which value of switch fluorescence ratio has been reported for `ACATGTGGCA` in the records?
Out: 1.04

In: Any idea what its switch fluorescence ratio is? The sequence is `AGGCTAAAGG`
Out: 1

In: Recorded switch fluorescence ratio for `TTGGAATGGG` , please?
Out: 1

In: For the sequence shown here, `TAAAGGGTTG` , give the reported switch fluorescence ratio.
Out: 1.02

In: Value lookup for switch fluorescence ratio; key = `ACGCCTACGA`
Out: 1.15

In: switch fluorescence ratio for `TGCATTGGGG` ?
Out: 1

In: GET /values?readout=switch fluorescence ratio&item= `AAGGTGTGTT`
Out: 1.08

In: switch fluorescence ratio for `AAGGCGGGG` ?
Out: 0.991

In: Report switch fluorescence ratio for `TTTTTGAAAC` please.
Out: 1.01

In: # switch fluorescence ratio lookup, item `TTGTGGTTGT`
Out: 0.966

In: # get_value(readout='switch fluorescence ratio', item= `TAGGTCGCCA` )
Out: 1.04

In: Which switch fluorescence ratio value is on record for `TTTATATGTC` ?
Out: 1.12

In: GET /values?readout=switch fluorescence ratio&item= `TACGAATTTT`
Out: 1.02

In: Please look up its switch fluorescence ratio: `TATATATTGC`
Out: 1.02

In: For the sequence shown here, `GCTGCTATTG` , give the reported switch fluorescence ratio.
Out: 0.994

In: # switch fluorescence ratio lookup, item `ACGGGTCCGT`
Out: 0.986

In: So what does the record say about switch fluorescence ratio for `TTTTTTATCC` ?
Out: 1.03

In: Reported switch fluorescence ratio, sequence `TTCATTGAGT` : ____
Out: 1.03

In: Entry `TTGCGGGGCC` has what switch fluorescence ratio?
Out: 1.04

In: Data request, read-out switch fluorescence ratio, for `TTTTGAGCGA`
Out: 1.07

In: Record request: switch fluorescence ratio value, item `GCTTAGTGGG`
Out: 0.954
